Some compounds, each annotated with its measured EC50.
System: Nrf2
measurement notes: Nrf2 activation assay, HMCB
Type: cell-based
test conditions: Homo sapiens, 72 h, read-out: Activation of Nrf2 production EC50

Observe how each entry below is paired with its result.
In [3]: df
Out[3]:
                                   compound  reading
0  O=C(O)c1cc(O)c2ccccc2n1 [Compound 2, 4-hydroxyquinoline-2-carboxylic acid]   506 nM
1  CNC(=O)c1ccccc1NC(=O)/C=C/c1ccc(OC)c(OC)c1   385 nM

# next compound below
Data request: Endpoint output: EC50 of N#C/C(=C\c1ccc(O)cc1)C(=O)O . Value?
Data returned: 1020 nM

====

measured target: tyrosinase in HMCB cells (Homo sapiens)
Construct: endogenous in cells; host or cells: HMCB cells
Sequence (P14679 19-529): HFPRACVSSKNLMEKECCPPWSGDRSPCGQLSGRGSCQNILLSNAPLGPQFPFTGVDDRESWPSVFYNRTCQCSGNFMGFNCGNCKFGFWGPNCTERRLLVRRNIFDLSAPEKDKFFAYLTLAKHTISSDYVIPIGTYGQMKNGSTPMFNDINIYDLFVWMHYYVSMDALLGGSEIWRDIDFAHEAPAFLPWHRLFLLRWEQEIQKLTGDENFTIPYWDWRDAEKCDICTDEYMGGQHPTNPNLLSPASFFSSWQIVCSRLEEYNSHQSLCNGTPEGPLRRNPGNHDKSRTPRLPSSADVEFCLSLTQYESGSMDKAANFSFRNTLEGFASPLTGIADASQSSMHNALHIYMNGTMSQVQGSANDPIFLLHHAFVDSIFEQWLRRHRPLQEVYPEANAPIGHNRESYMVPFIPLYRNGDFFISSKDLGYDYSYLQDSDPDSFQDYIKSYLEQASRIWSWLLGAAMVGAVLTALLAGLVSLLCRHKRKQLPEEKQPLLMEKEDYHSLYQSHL
measurement notes: Cellular tyrosinase assay (L-DOPA as substrate)
Type: cell-based
readout: pIC50
Please report pIC50 as the negative decimal logarithm of the molar concentration, giving only the number.

Data request: Endpoint output: pIC50 of N#C/C(=C\c1ccc(O)cc1)C(=O)O . Value?
Data returned: 4.29

====

measurement notes: NR viability assay, THP-1
Format: cell-based, Homo sapiens
test conditions: human, Viability CC50
readout: CC50 at 72 h
# output: numeric value plus its unit

Data request: Endpoint output: CC50 at 72 h of O=C(O)c1cc(O)c2ccccc2n1 [Compound 2, 4-hydroxyquinoline-2-carboxylic acid] . Value?
Data returned: 100 µM
